Species: Rattus norvegicus
Assay: Open TG-GATES - Regimen: Single
Assay type: toxicity, organism-based, Sprague-Dawley
Design: regimen Single, gender Male, age 6 weeks
Details: in vivo, po, 10 mg/kg, 24 h, tissue Plasma, route gavage, dose level Low

compound | TC, mg/dL
CC(C)OC(=O)C(C)(C)Oc1ccc(C(=O)c2ccc(Cl)cc2)cc1 [FENOFIBRATE] | 68.8
CN(C)CCN(Cc1cccs1)c1ccccn1 | 75.2
CC1=C(/C=C/C(C)=C/C=C/C(C)=C/CO)C(C)(C)CCC1 | 65
CN(C)CCCN1c2ccccc2CCc2ccc(Cl)cc21 | 73.8
CN(C)CCCN1c2ccccc2CCc2ccccc21 | 78
